- TESTED_TARGET: human M1 (hM1) (Homo sapiens, UniProt P11229)
- Sequence (P11229 1-460): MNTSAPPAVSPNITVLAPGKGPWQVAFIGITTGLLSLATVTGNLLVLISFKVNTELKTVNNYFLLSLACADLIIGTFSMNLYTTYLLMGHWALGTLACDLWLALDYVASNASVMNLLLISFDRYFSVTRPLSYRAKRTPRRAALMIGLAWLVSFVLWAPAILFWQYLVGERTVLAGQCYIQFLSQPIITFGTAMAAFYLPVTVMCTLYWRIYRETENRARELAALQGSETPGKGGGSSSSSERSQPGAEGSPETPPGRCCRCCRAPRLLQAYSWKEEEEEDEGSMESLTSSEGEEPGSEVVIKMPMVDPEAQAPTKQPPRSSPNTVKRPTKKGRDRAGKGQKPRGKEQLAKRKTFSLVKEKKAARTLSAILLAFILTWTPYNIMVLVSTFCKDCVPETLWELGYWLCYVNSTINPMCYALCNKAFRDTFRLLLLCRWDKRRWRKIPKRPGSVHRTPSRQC
- METHOD_NOTES: hM1 PAM functional
- Type: cell-based
- ASSAY_SETUP: tested up to 30 μM
RECORDED_ENDPOINT: hM1 PAM activity

Query string: If you can, please state the reported hM1 PAM activity value of Cn1cc(-c2ccc(CN3CCc4ccccc43)c(F)c2)cn1 [Compound 16] .
Result string: not tolerated

Query string: If you can, please state the reported hM1 PAM activity value of Cn1cc(-c2ccc(CN3C(=O)C(C)(N)c4ccccc43)c(F)c2)cn1 (stereo not drawn) [Compound 23c] .
Result string: weakly active

Query string: If you can, please state the reported hM1 PAM activity value of CN(C)C1(C)C(=O)N(Cc2ccc(-c3cnn(C)c3)cc2)c2ccccc21 (stereo not drawn) [Compound 23d] .
Result string: weakly active

Query string: If you can, please state the reported hM1 PAM activity value of Cn1cc(-c2ccc(Cn3c(=O)[nH]c4ccccc43)c(F)c2)cn1 [Compound 15] .
Result string: not tolerated

Data origin: paper PMC3534865
